Provide the reported pIC50 of each item.
target: POLRMT (Homo sapiens, UniProt O00411); assay: homogeneous TR-FRET assay of mitochondrial transcription (inhibition of POLRMT); format: biochemical; settings: isoquinolinone compounds (Table 1)
Sequence (O00411 42-1230): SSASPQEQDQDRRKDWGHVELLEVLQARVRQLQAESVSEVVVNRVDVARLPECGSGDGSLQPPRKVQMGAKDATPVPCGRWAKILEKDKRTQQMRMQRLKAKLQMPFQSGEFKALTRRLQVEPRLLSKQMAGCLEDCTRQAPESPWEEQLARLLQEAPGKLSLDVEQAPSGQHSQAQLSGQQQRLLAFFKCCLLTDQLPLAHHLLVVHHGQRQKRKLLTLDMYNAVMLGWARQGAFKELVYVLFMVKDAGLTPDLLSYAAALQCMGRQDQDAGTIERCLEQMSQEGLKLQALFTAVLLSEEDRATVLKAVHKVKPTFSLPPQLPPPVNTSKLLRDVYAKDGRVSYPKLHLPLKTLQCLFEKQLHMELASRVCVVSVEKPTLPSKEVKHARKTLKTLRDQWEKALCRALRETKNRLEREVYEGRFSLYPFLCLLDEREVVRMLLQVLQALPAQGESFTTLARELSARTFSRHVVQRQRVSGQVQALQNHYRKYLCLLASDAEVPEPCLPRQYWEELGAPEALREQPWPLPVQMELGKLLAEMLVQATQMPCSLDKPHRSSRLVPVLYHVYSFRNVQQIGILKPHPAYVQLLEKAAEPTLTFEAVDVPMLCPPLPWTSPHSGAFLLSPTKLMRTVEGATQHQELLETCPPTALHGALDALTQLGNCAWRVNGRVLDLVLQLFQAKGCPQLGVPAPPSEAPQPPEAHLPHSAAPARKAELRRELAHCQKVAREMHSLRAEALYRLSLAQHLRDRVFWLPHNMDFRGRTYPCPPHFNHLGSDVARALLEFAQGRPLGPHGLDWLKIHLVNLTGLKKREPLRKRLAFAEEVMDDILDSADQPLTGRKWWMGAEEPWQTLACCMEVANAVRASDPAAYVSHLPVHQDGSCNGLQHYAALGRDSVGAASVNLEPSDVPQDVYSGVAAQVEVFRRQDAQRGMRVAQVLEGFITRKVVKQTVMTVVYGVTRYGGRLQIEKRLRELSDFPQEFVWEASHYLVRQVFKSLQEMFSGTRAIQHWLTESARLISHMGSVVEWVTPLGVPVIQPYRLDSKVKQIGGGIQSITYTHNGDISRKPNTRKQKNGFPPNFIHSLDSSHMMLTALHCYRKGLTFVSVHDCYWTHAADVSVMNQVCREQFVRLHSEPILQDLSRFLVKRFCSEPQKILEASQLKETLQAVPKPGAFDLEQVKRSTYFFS
Give bare numbers, as −log10 of the molar value.

>>> print(df.to_string())
                                   compound  observed
0  CC(C#N)Oc1ccc2c(-c3ccc(F)cc3Cl)c[nH]c(=O)c2c1 (single isomer, unassigned) [Example 49]      5.30
1  Cc1ccccc1-c1c[nH]c(=O)c2cc(OCC(F)(F)F)ccc12      7.52
2  C[C@@H](Oc1ccc2c(-c3ccc(F)cc3Cl)c[nH]c(=O)c2c1)C(=O)N1CCOCC1(C)C      6.70

// input: 3 compounds below; output: pIC50 for each
1. C[C@H]1CN(C(=O)[C@@H](C)Oc2ccc3c(-c4ccc(F)cc4Cl)c[nH]c(=O)c3c2)C[C@H](C)O1 (single isomer, unassigned) [Example 124]
2. COCC(Oc1ccc2c(-c3ccccc3C)c[nH]c(=O)c2c1)C(=O)O (stereo not drawn)
3. C[C@@H](Oc1ccc2c(-c3ccc(F)cc3Cl)c[nH]c(=O)c2c1)C(=O)N1C2CCC1COC2

6.30
5.22
7.10
